System: CCRF-CEM
assayProtocol: NCI tumour cell line growth inhibition, 48 h
Calls of active or inactive are those of the source. Cut-off read from the data, not from the text of the source: active = GI50 up to about 1.1 µM and inactive = higher.
measurementName: GI50

Asked: Endpoint output: GI50 of CC(C)C/C=C/C1=NN(c2cccc(S(=O)(=O)O)c2)C2(C1)SCC(=O)N2c1nc2ccccc2s1 (stereo not drawn) . Value?
Given back: 23.3 µM (inactive)

Asked: Endpoint output: GI50 of CN(C1=NCCO1)c1cccc2ccccc12 . Value?
Given back: > 10 µM (inactive)

Asked: Endpoint output: GI50 of CC(=O)OCC1OC(Oc2cc(C)c(O)cc2C/C=C(\C)CC/C=C(\C)CC(=O)CC(C)C)C(O)C(OC(C)=O)C1OC(C)=O (stereo not drawn) . Value?
Given back: 9.82 µM (inactive)

* * *

Test system: MOLT-4
assayProtocol: NCI tumour cell line growth inhibition, 48 h
Activity calls are given as the source filed them. Cut-off read from the data, not from the text of the source: active = GI50 up to about 1.1 µM and inactive = higher.
Answer with one of the outcomes given here: class 1 (active), class 0 (inactive)

Asked: Short answer needed: outcome of this test for C=C(Cl)Cc1c(O)c2c(c(O)c1CC(=C)Cl)C(=O)c1ccccc1C2=O ?
Given back: class 0

Asked: Short answer needed: outcome of this test for O/N=C1\CCc2cc3c(cc21)CCC3 ?
Given back: class 0

Asked: Short answer needed: outcome of this test for Nc1cc2ncnn2c(SCC(=O)N/N=C/C(Br)=C\c2ccccc2)n1 ?
Given back: class 0

Asked: Short answer needed: outcome of this test for COC(=O)C(Cc1ccccc1)/N=C/c1c(O)c(O)c(C(C)C)c2cc(C)c(-c3c(C)cc4c(C(C)C)c(O)c(O)c(/C=N/C(Cc5ccccc5)C(=O)OC)c4c3O)c(O)c12 (stereo not drawn) ?
Given back: class 0

Asked: Short answer needed: outcome of this test for N=C(N)c1ccc(/N=N\c2c(O)ccc3c2[nH]c2ccccc23)cc1 ?
Given back: class 0

Asked: Short answer needed: outcome of this test for CC[C@H]1CN2CCc3cc(OC)c(OC)cc3[C@@H]2C[C@@H]1C[C@H]1NCCc2cc(O)c(OC)cc21 ?
Given back: class 1

Asked: Short answer needed: outcome of this test for COc1ccc(C)c2c1N[C@](C)([C@]1(C)Nc3c(OC)ccc(C)c3C1=O)C2=O ?
Given back: class 0

Asked: Short answer needed: outcome of this test for COc1ccc(/C(Cl)=C(\C=O)c2ccc(F)cc2)cc1 ?
Given back: class 0

* * *

Tested on: KM12
assayProtocol: NCI tumour cell line growth inhibition, 48 h
Activity calls are given as the source filed them. Rule as the data show it: active = GI50 up to about 1.1 µM and inactive = higher.
Exercise: state measured GI50 for each of the compounds provided.

Asked: Endpoint output: GI50 of Cc1ccc(S(=O)(=O)NC(=O)OC23COCN2COC3)cc1 . Value?
Given back: > 100 µM (inactive)

Asked: Endpoint output: GI50 of CN(CCn1cnc2c1c(=O)n(C)c(=O)n2C)C1CCCCC1 . Value?
Given back: > 100 µM (inactive)

Asked: Endpoint output: GI50 of COc1ccc2c(c1)c1c(n2CCN(C)C)-c2ccccc2CC1 . Value?
Given back: 14.4 µM (inactive)

Asked: Endpoint output: GI50 of Cn1c(N)nc(-c2ccc(Cl)cc2)c1SSc1c(-c2ccc(Cl)cc2)nc(N)n1C . Value?
Given back: 1.85 µM (inactive)

Asked: Endpoint output: GI50 of O=C(c1ccc2ccccc2c1)C1(I)S(=O)(=O)OCCOS1(=O)=O . Value?
Given back: > 100 µM (inactive)

Asked: Endpoint output: GI50 of Cc1ccc(C(=O)/C=C2\Nc3ccccc3NC2=O)cc1 . Value?
Given back: 17.1 µM (inactive)

Asked: Endpoint output: GI50 of c1ccc2c(c1)SCCc1cn[nH]c1-2 . Value?
Given back: > 100 µM (inactive)

Asked: Endpoint output: GI50 of Cc1ccnc2nc3[nH]c4ccccc4c3cc12 . Value?
Given back: > 100 µM (inactive)

* * *

Test system: HL-60
assayProtocol: NCI tumour cell line growth inhibition, 48 h
Activity calls are given as the source filed them. No stated cut-off is given here; in the data, active = GI50 up to about 1.1 µM and inactive = higher. Non-standard residues stand in square brackets, D forms with d. Residues, ends and D or L forms follow the SMILES beside them. ξ: configuration not given here. Pen = CC(C)(S)[C@H](N)C(=O)O; ξL = CC(C)CC(N)C(=O)O
measurementName: GI50

Asked: Param readout = GI50; param system = HL-60; param query = CCN(CC)CCCNc1nc(=O)[nH]c(C)c1C(=O)Nc1ccc2c(c1)c1ccccc1n2CC ; response: value
Given back: > 100 µM (inactive)

Asked: Param readout = GI50; param system = HL-60; param query = COC(=O)C(=O)C(C(=O)OC)C(=O)C(=O)Nc1c(C)cccc1C (stereo unspecified) ; response: value
Given back: > 100 µM (inactive)

Asked: Param readout = GI50; param system = HL-60; param query = CC1NC(/C(=C/c2ccccc2O)NC(=O)c2ccccc2)OC1=O (stereo unspecified) ; response: value
Given back: 23.3 µM (inactive)

Asked: Param readout = GI50; param system = HL-60; param query = O=C(CC(O)(c1ccccc1)c1ccc(Cl)cc1)NC(=O)c1ccccc1O (stereo unspecified) ; response: value
Given back: 4.6 µM (inactive)

Asked: Param readout = GI50; param system = HL-60; param query = Cc1ccc(NC(=O)/C(=N/NC(=O)CC#N)C2C(=O)N(c3ccccc3)N=C2N)cc1C (stereo unspecified) ; response: value
Given back: > 100 µM (inactive)

Asked: Param readout = GI50; param system = HL-60; param query = Cc1ccc(O)c(C2=NNC(c3cccc(Br)c3)C2)c1 (stereo unspecified) ; response: value
Given back: 53.3 µM (inactive)

Asked: Param readout = GI50; param system = HL-60; param query = CC(C)C(C/C=C1\CC(CO)(COC(=O)CC(C(C)C)C(C)C)OC1=O)C(C)C (stereo unspecified) ; response: value
Given back: 2.74 µM (inactive)

Asked: Param readout = GI50; param system = HL-60; param query = CCC(C)C(=O)O[C@H]1C(=O)O[C@@H]2C[C@H]3C(C)=CC(=O)[C@@H](O)[C@]3(C)[C@H]3[C@@H](O)[C@H](O)[C@@]4(C)OC[C@]32[C@@H]14 (stereo partly specified) ; response: value
Given back: 0.014 µM (active)

Asked: Param readout = GI50; param system = HL-60; param query = CCCCCCC(C)OC(=O)/C=C(\CC(=O)OC(C)CCCCCC)C(=O)OC(C)CCCCCC (stereo unspecified) ; response: value
Given back: > 100 µM (inactive)

Asked: Param readout = GI50; param system = HL-60; param query = COc1cc2oc(-c3ccc(O)cc3)c(OC3OC(C)C(O)C(O)C3O)c(=O)c2c(O)c1OC (stereo unspecified) ; response: value
Given back: 32.9 µM (inactive)

Asked: Param readout = GI50; param system = HL-60; param query = O=C(Nc1c(C(F)(F)F)cc(-c2ccccc2)[nH]c1=O)N1CCOCC1 ; response: value
Given back: 26.9 µM (inactive)

Asked: Param readout = GI50; param system = HL-60; param query = CC(=O)Oc1ccc(C(c2ccc(OC(C)=O)cc2)c2ccccn2)cc1 ; response: value
Given back: 36.2 µM (inactive)

Asked: Param readout = GI50; param system = HL-60; param query = CCOc1ccc(/N=N/c2ccc3cc(/C(C)=N/NC(=O)/C(C#N)=C\c4ccc(N(CCC#N)CCC#N)cc4)c(=O)oc3c2)cc1 ; response: value
Given back: > 10 µM (inactive)

Asked: Param readout = GI50; param system = HL-60; param query = Cc1ccccc1N1C(N)=C(C#N)C(C#N)(C#N)C1c1ccccc1 (stereo unspecified) ; response: value
Given back: 18.5 µM (inactive)

Asked: Param readout = GI50; param system = HL-60; param query = COc1cccc(SSc2cccc(OC)c2C(=O)O)c1C(=O)O ; response: value
Given back: > 100 µM (inactive)

Asked: Param readout = GI50; param system = HL-60; param query = Cc1ccc(S(=O)(=O)N(CCN2C(=O)c3ccccc3C2=O)c2cc3c4c(c2)Oc2cc(N(CCN5C(=O)c6ccccc6C5=O)S(=O)(=O)c5ccc(C)cc5)cc5c2C4(C)c2c(cc(N(CCN4C(=O)c6ccccc6C4=O)S(=O)(=O)c4ccc(C)cc4)cc2O5)O3)cc1 ; response: value
Given back: > 100 µM (inactive)

Asked: Param readout = GI50; param system = HL-60; param query = CC(=O)/C(=C/NC(=S)c1ccncc1)C(=O)Nc1ccccc1C ; response: value
Given back: > 100 µM (inactive)

Asked: Param readout = GI50; param system = HL-60; param query = Clc1ccccc1C(SCc1ccccc1)SCc1ccccc1 ; response: value
Given back: 64.7 µM (inactive)

Asked: Param readout = GI50; param system = HL-60; param query = O=C(c1ccccc1)c1ccc(N2C(=O)/C(=C/Cc3ccco3)N=C2c2ccccc2)c(N2C(=O)/C(=C/Cc3ccco3)N=C2c2ccccc2)c1 ; response: value
Given back: 15.3 µM (inactive)

Asked: Param readout = GI50; param system = HL-60; param query = CC(C)(O)C1OCC(C2CCC3(C)C4=CCC5C(C)(C)C(O)CCC5(C)C4CCC23C)CC1O (stereo unspecified) ; response: value
Given back: > 100 µM (inactive)

Asked: Param readout = GI50; param system = HL-60; param query = OC/C=C(\I)CCCOCOCc1ccccc1 ; response: value
Given back: 15.9 µM (inactive)

Asked: Param readout = GI50; param system = HL-60; param query = CCCCCCSc1nc(N)nc2nc[nH]c12 ; response: value
Given back: 19.6 µM (inactive)

Asked: Param readout = GI50; param system = HL-60; param query = Brc1ccc(C2CC3(c4ccccc4)ON=C(c4ccccc4)N3c3ccccc3S2)cc1 (stereo unspecified) ; response: value
Given back: > 100 µM (inactive)

Asked: Param readout = GI50; param system = HL-60; param query = CCCCN(CC)C(=O)C1=C(C)NC(C)=C(C(=O)N(CC)CCCC)C1 ; response: value
Given back: 89.1 µM (inactive)

Asked: Param readout = GI50; param system = HL-60; param query = Nc1cc(OCc2ccccc2)c(OCc2ccccc2)cc1C=O ; response: value
Given back: 15.2 µM (inactive)

Asked: Param readout = GI50; param system = HL-60; param query = COc1ccc(/N=c2\ssc3c(=S)ssc23)cc1 ; response: value
Given back: 4.09 µM (inactive)

Asked: Param readout = GI50; param system = HL-60; param query = CCOC(=O)c1cc(Br)c(-c2onc(C)c2Br)n1C ; response: value
Given back: 11.8 µM (inactive)

Asked: Param readout = GI50; param system = HL-60; param query = C=CCN(c1cc(OC)c2[nH]cc(C)c2c1[N+](=O)[O-])S(C)(=O)=O ; response: value
Given back: > 100 µM (inactive)

Asked: Param readout = GI50; param system = HL-60; param query = COC(=O)C(C(=O)C(=O)NC1=C(Cl)C(=O)c2ccccc2C1=O)c1csc(-n2nc(-c3ccccc3)cc2-c2ccccc2)n1 (stereo unspecified) ; response: value
Given back: > 100 µM (inactive)

Asked: Param readout = GI50; param system = HL-60; param query = CSCC[C@H](NC(=O)C(CC(C)C)NC(=O)[C@H](Cc1c[nH]cn1)NC(=O)CNC(=O)[C@@H](NC(=O)[C@@H](C)NC(=O)[C@H](Cc1c[nH]c2ccccc12)NC(=O)[C@H](CCC(N)=O)NC(=O)[C@@H](N)CC(N)=O)C(C)(C)SC)C(N)=O (stereo partly specified) (H-NQW[dA][Pen](Me)GH[ξL]M-NH2) ; response: value
Given back: > 100 µM (inactive)

Asked: Param readout = GI50; param system = HL-60; param query = Nc1nc(N)c2c(n1)CCC(S(=O)(=O)c1ccc3ccccc3c1)C2 (stereo unspecified) ; response: value
Given back: 13.5 µM (inactive)
